- Target: Delta-type opioid receptor (Homo sapiens, UniProt P41143)
- Sequence (P41143 whole entry): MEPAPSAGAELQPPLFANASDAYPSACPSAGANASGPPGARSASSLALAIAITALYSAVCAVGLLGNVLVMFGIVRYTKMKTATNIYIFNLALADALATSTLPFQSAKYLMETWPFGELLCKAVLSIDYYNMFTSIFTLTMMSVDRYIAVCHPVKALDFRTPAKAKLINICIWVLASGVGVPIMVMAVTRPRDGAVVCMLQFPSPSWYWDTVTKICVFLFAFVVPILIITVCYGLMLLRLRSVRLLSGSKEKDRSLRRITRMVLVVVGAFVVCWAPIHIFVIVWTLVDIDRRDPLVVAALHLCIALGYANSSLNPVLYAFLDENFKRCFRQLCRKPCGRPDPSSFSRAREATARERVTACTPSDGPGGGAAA
- Protocol Description: Displacement of [3H]DPDPE from delta opioid receptor (unknown origin) expressed in CHO cells after 90 mins by liquid scintillation counting
Please go through the items and note down their pKi.
Numbers only, as −log10 of the molar value.

Chemical Smiles	pKi
NC(=O)[C@H](CNC(=O)[C@H](CNC(=O)[C@@H]1CCCN1C(=O)[C@@H](N)Cc1ccc(O)cc1)Cc1ccccc1)Cc1ccccc1	6.04
NC(=O)[C@H]1Cc2ccccc2CN(C(=O)C[C@H](Cc2ccccc2)NC(=O)[C@@H]2CCCN2C(=O)[C@@H](N)Cc2ccc(O)cc2)C1	6.73
NC(=O)C[C@@H]1Cc2ccccc2CN1C(=O)C[C@H](Cc1ccccc1)NC(=O)[C@@H]1CCCN1C(=O)[C@@H](N)Cc1ccc(O)cc1	5.78

Hey, can you go through the list below and give me pKi for every item?
1. NC(=O)[C@H](CNC(=O)C[C@H](Cc1ccccc1)NC(=O)[C@@H]1CCCN1C(=O)[C@@H](N)Cc1ccc(O)cc1)Cc1ccccc1
2. NC(=O)C[C@H](Cc1ccccc1)NC(=O)C[C@H](Cc1ccccc1)NC(=O)[C@@H]1CCCN1C(=O)[C@@H](N)Cc1ccc(O)cc1
3. NC(=O)[C@@H](CNC(=O)C[C@H](Cc1ccccc1)NC(=O)[C@@H]1CCCN1C(=O)[C@@H](N)Cc1ccc(O)cc1)Cc1ccccc1
4. NC(=O)[C@@H]1Cc2ccccc2CN(C(=O)C[C@H](Cc2ccccc2)NC(=O)[C@@H]2CCCN2C(=O)[C@@H](N)Cc2ccc(O)cc2)C1

6.33
5.55
5.87
6.16

----------
- Target: Mu-type opioid receptor (Homo sapiens, UniProt P35372)
- Sequence (P35372 whole entry): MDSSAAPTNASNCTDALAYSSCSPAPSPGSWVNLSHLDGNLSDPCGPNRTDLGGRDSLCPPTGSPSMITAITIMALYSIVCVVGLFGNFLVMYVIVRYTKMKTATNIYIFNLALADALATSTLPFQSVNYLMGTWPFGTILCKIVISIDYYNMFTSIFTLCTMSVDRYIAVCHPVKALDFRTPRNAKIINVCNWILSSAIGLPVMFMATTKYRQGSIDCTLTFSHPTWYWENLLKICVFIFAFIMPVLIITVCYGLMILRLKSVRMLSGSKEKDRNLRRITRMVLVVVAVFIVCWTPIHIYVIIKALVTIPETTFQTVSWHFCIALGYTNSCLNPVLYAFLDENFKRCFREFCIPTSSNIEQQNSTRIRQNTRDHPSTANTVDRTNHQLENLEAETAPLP
Threshold check on Ki: strictly below 0.01 µM is 1; on or above 0.01 µM is -1.

Reference set (3 entries):
Chemical Smiles	Class Name
NC(=O)[C@H](CNC(=O)[C@H](CNC(=O)[C@@H]1CCCN1C(=O)[C@@H](N)Cc1ccc(O)cc1)Cc1ccccc1)Cc1ccccc1	-1
NC(=O)[C@@H](CNC(=O)C[C@H](Cc1ccccc1)NC(=O)[C@@H]1CCCN1C(=O)[C@@H](N)Cc1ccc(O)cc1)Cc1ccccc1	1
NC(=O)[C@H]1Cc2ccccc2CN(C(=O)C[C@H](Cc2ccccc2)NC(=O)[C@@H]2CCCN2C(=O)[C@@H](N)Cc2ccc(O)cc2)C1	-1

Consider NC(=O)[C@@H]1Cc2ccccc2CN(C(=O)C[C@H](Cc2ccccc2)NC(=O)[C@@H]2CCCN2C(=O)[C@@H](N)Cc2ccc(O)cc2)C1 . Does its Ki lie strictly below 0.01 µM? -1

Given the entry NC(=O)C[C@H](Cc1ccccc1)NC(=O)C[C@H](Cc1ccccc1)NC(=O)[C@@H]1CCCN1C(=O)[C@@H](N)Cc1ccc(O)cc1 , would its reported Ki be below 0.01 µM? -1

Record NC(=O)C[C@@H]1Cc2ccccc2CN1C(=O)C[C@H](Cc1ccccc1)NC(=O)[C@@H]1CCCN1C(=O)[C@@H](N)Cc1ccc(O)cc1 : is its Ki strictly below 0.01 µM? -1

Please indicate whether the reported Ki of NC(=O)[C@H](CNC(=O)C[C@H](Cc1ccccc1)NC(=O)[C@@H]1CCCN1C(=O)[C@@H](N)Cc1ccc(O)cc1)Cc1ccccc1 is strictly below 0.01 µM. 1
